# tested.system: activated human MMP13 (human, UniProt P45452 104-471)
# protocol.text: cell-based or functional assay
readout.name: IC50, human fluorogenic peptide assay (nM)
Your answer should be a plain number; it is taken to be in nM.

# count of solved cases: 5
{"columns": ["binder", "numeric.result"],
 "data": [
  ["C0101PMP525C04 (VHH, Profile 2 Nanobody) VHH: DVQLVESGGGLVQPGGSLRLSCAGSGSIFSGNAMGWYRQAPGKQRELVAAITSGGVTNYADSVKGRFTISRDNSKNTVYLQMNSLRPEDTAVYYCAADIRYPTGLVGDYWGQGTLVTVSS", 58],
  ["C0101PMP062C02 (VHH, Profile 2 Nanobody; also called C0101062C02) VHH: EVQLVESGGALVRPGGSLRLSCAASGFAFSAAYMSWVRQAPGRGLEWVSSISDDGSKTYYADSVKGRFTISRDNAKNTVYLQMNNLKPDDTAVYYCNTGYGATTTRPGRYWGQGTQVTVSS", 1.4],
  ["C0101PMP516G08 (VHH, Profile 2 Nanobody; also called C0101516G08) VHH: DVQLVESGGGLVQPGGSLRLSCAGSGSIFRINVMAWYRQAPGKQRELVAAITSGGTTNYADSVKGRFTISRDNSKNTVYLQMNSLRPEDTAVYYCYADIGWPYVLDYDFWGQGTLVTVSS", 0.8],
  ["C0101PMP529C12 (VHH, Profile 2 Nanobody; also called C0101529C12) VHH: DVQLVESGGGLVQPGGSLRLSCVASGSIFSINAMGWYRQAPGKQRELVAAISSGGSTYYADSVKGRFTISRDNSKNTVYLQMNSLRPEDTAVYYCNAAVDASRGLPYELYYYWGQGTLVTVSS", 1.2],
  ["C0101PMP063F01 (VHH, Profile 2 Nanobody) VHH: EVQLVESGGGLVQPGGSLRLSCSASTGIFRINTMGWHRQAPGKQRDLVATFTSDDNTKYADSVKGRFTISRDNAENTVYLQMNDLKPEDTAVYYCHATTVMYDSNSPDYWGQGTQVTVSS", 82.4]
]}

# ---- query binder ----
In plain terms, C0101PMP513C04 (VHH) VHH: DVQLVESGGGLVQPGGSLRLSCAASGRTFSRYVMGWFRQAPGKEREFVAAINWSSGSTYYADSVKGRFTISRDNSKNTVYLQMNSLRPEDTAVYYCAADRRVYYDTYPNLRGYDYWGQGTLVTVSS has a documented IC50, human fluorogenic peptide assay of 7.7
